Molecular target: horse serum BChE (Equus caballus, UniProt P81908)
Construct: horse serum BChE (EC 3.1.1.8); purchased Sigma-Aldrich Co; host or cells: horse serum
Sequence (P81908 whole entry): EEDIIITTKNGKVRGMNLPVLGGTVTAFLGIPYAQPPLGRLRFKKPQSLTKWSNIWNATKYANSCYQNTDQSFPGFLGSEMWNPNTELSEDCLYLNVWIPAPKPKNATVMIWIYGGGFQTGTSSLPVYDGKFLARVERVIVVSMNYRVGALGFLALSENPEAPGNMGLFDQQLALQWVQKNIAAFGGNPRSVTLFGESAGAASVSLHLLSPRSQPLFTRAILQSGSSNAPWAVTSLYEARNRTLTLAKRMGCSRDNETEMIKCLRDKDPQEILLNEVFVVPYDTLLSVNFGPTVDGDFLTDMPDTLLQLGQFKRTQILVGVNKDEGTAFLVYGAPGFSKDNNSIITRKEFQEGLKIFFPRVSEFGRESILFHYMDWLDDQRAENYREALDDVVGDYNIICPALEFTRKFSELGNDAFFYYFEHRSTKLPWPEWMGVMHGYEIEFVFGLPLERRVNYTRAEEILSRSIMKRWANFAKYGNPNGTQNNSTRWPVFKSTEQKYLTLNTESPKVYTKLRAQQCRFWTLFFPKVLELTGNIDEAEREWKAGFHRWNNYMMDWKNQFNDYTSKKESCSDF
Test: Kinetic analysis of BChE inhibition (Dixon and Lineweaver−Burk plots)
Assay type: biochemical
result_type: Ki (µM)

• Cc1cc2c(c(C)c1CCO)C(=O)[C@H](C)[C@H]2O = 4.77
• Cc1cc2c(c(C)c1CCO)C(=O)[C@@H](C)[C@H]2O = 29.9
• Cc1cc2c(c(C)c1CCO)C(=O)[C@H](C)C2 = 53.5

* * *

Target: Electric eel AChE (Electrophorus electricus)
Construct: purchased Sigma-Aldrich Co
Sequence (O42275 24-633): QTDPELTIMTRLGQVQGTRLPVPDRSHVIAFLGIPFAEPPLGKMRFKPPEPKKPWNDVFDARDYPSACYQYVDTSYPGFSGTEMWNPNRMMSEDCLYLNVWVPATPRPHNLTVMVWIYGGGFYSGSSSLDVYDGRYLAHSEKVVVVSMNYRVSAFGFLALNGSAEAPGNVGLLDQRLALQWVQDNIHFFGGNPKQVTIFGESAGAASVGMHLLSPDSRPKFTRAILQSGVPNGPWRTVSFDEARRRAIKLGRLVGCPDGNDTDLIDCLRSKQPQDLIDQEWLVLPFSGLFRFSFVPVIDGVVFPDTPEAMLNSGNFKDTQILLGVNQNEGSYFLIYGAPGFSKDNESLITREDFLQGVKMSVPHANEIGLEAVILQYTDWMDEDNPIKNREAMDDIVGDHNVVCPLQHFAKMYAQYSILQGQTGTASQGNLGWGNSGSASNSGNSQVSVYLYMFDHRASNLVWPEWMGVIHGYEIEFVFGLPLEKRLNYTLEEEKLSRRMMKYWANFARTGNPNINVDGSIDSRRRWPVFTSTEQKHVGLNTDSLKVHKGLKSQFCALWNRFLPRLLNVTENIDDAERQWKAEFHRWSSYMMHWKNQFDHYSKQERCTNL
Assay: In vitro cholinesterase enzyme assay (Ellman), AChE
Format: biochemical
Settings: mean ± S.D. of three experiments; read-out: IC50 AChE
The label is class 1 for IC50 below 20 µM and class 0 for IC50 equal to or exceeding 20 µM.

• Cc1cc2c(c(C)c1CCOC1OC(CO)C(O)C(O)C1O)C(=O)C(C)C2O [(2R,3R)-Pteroside C, (2R,3R)-pteroside C] = class 1
• Cc1cc2c(c(C)c1CCOC1OC(CO)C(O)C(O)C1O)C(=O)C(C)(C)C2O [(3S)-Pteroside D, (3S)-pteroside D] = class 0
• Cc1cc2c(c(C)c1CCO[C@@H]1O[C@H](CO)[C@@H](O)[C@H](O)[C@H]1O)C(=O)[C@@H](C)[C@H]2O [(2S,3R)-Pteroside C, (2S,3R)-pteroside C] = class 1
• Cc1cc2c(c(C)c1CCO)C(=O)[C@](C)(CO)C2 [(2S)-Pterosin A, (2S)-pterosin A] = class 0
• Cc1cc2c(c(C)c1CCO)C(=O)C(C)(C)C2O (stereo in doubt) [(3R)-Pterosin D, (3R)-pterosin D] = class 0
• Cc1cc2c(c(C)c1CCO)C(=O)C(C)(COC1OC(CO)C(O)C(O)C1O)C2 [(2S)-Pteroside A2, (2S)-pteroside A2] = class 0
• Cc1c(CCO[C@@H]2O[C@H](CO)[C@@H](O)[C@H](O)[C@H]2O)c(CO)cc2c1C(=O)[C@@H](C)C2 [(2S)-Pteroside P, (2S)-pteroside P] = class 0
• Cc1cc2c(c(C)c1CCOC1OC(CO)C(O)C(O)C1O)C(=O)C(C)C2 [(2R)-Pteroside B, (2R)-pteroside B] = class 1
• Cc1cc2c(c(C)c1CCO[C@@H]1O[C@H](CO)[C@@H](O)[C@H](O)[C@H]1O)C(=O)C(C)(C)C2 [Pteroside Z, pteroside Z] = class 0
